Data credit: patent US20240366634A1

target: CB1 receptor (Homo sapiens); construct: expressed in transfected cells; host or cells: Xenopus laevis oocytes injected with cRNA; assay: CB1 receptor activation by terpenes, CB1-mediated GIRK currents in Xenopus oocytes (two-electrode voltage clamp); assay type: cell-based; conditions: 10 μM terpene alone; response amplitude normalized to response obtained with 10 μM THC; Xenopus oocytes expressing CB1, GIRK1/2, Gαi3
Sequence (P21554 whole entry): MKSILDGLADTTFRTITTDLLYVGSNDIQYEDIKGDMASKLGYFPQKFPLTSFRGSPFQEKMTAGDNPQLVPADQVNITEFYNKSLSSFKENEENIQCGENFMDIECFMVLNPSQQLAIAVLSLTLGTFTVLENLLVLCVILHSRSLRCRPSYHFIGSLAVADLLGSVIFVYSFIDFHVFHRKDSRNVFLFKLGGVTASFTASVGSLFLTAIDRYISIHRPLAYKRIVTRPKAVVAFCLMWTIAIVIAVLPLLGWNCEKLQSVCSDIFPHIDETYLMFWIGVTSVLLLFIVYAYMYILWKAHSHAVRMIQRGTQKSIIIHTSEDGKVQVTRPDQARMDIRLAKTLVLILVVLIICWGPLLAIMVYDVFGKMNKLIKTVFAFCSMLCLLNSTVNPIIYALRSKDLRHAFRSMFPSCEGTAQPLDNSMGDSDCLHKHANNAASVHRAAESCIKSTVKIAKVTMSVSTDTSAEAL

>  <compound>
CC1=CCC(=C(C)C)CC1 [terpinolene]

>  <tested-on>
CB1 receptor (Homo sapiens)

>  <Response to 10 μM terpene>
0.45

$$$$
>  <compound>
CC(C)=CCC/C(C)=C/CO [geraniol]

>  <tested-on>
CB1 receptor (Homo sapiens)

>  <Response to 10 μM terpene>
0.31

$$$$
>  <compound>
C=CC(C)=CCC=C(C)C [ocimene]

>  <tested-on>
CB1 receptor (Homo sapiens)

>  <Response to 10 μM terpene>
0.36

$$$$
>  <compound>
CC1=CCC2CC1C2(C)C (stereo not drawn) [α-pinene]

>  <tested-on>
CB1 receptor (Homo sapiens)

>  <Response to 10 μM terpene>
0.29

$$$$
>  <compound>
C=C(C)[C@H]1CC=C(C)CC1 [limonene]

>  <tested-on>
CB1 receptor (Homo sapiens)

>  <Response to 10 μM terpene>
0.23

$$$$
>  <compound>
C=CC(=C)CCC=C(C)C [myrcene]

>  <tested-on>
CB1 receptor (Homo sapiens)

>  <Response to 10 μM terpene>
0.26

$$$$
>  <compound>
CC12CCC(CC1)C(C)(C)O2 [eucalyptol]

>  <tested-on>
CB1 receptor (Homo sapiens)

>  <Response to 10 μM terpene>
0.41

$$$$
>  <compound>
C=C1CCC2CC1C2(C)C (stereo not drawn) [β-pinene]

>  <tested-on>
CB1 receptor (Homo sapiens)

>  <Response to 10 μM terpene>
0.29

$$$$
